# Test system: SNB-75 CNS
# procedureText: NCI tumour cell line growth inhibition, 48 h
Listed here: items and their measured TGI.

# compound, measuredOn, measuredValue
data = [
    ("CC1C2(C)OC(=N)C(C#N)(C(c3ccco3)O2)C1(C#N)C#N (configuration not stated)", "SNB-75 CNS", "> 100 µM"),
    ("O=C1SC(c2ccccc2)(c2ccccc2)c2ccccc21", "SNB-75 CNS", "> 100 µM"),
    ("CN1C(=O)c2cc([N+](=O)[O-])ccc2[C@H]2C(=O)c3cc4c(cc3[C@H]21)OCO4", "SNB-75 CNS", "> 100 µM"),
]

Exercise: If you can, please state the reported TGI value of Clc1ccc2c(c1)CC1C[N+]3=C(CCCC3)C1=C2 (configuration not stated) .
Solution: > 100 µM

Exercise: Also, Cc1[nH]n(-c2ccc(S(=O)(=O)O)cc2)c(=O)c1N=Nc1ccccc1 please.
Solution: > 100 µM

Exercise: Likewise for O=C(O)C(Cc1cnc[nH]1)N=Cc1nc(-c2ccccc2)oc1O (configuration not stated) ?
Solution: > 100 µM

Exercise: Now this one: Cn1cnc([N+](=O)[O-])c1SC1=NCCS1
Solution: > 100 µM

Exercise: Another: O=C1OC2c3ccccc3C(=O)C2(c2ccccc2)N1c1ccccc1 (configuration not stated)
Solution: > 200 µM

Exercise: Note, next up: COCOCc1cc(OCc2ccccc2)c(OC)cc1Br
Solution: > 100 µM

###

# System: K-562 leukemia
# procedureText: NCI tumour cell line growth inhibition, 48 h
TGI by entry:
Just the number please, in µM, no unit attached.

# mol, TGI [µM]
data = [
    ("O=C1C=CC[C@H](/C=C/C[C@@H](O)C[C@H](O)/C=C/c2ccccc2)O1", 42.3),
]

Exercise: For the record CN(C)CC(C)(C)C(/C=C/c1ccccc1)=N\Nc1ccccc1 , what value of TGI is listed for K-562 leukemia?
Solution: 0.828

Exercise: Here is the next compound: Cc1cc(C)nc(NS(=O)(=O)c2ccc(NNC(=O)c3cccc4c(NNc5ccc(S(=O)(=O)Nc6nc(C)cc(C)n6)cc5)c5ccccc5nc34)cc2)n1
Solution: 52.4

###

List of TGI values.
# System: U251 CNS
# procedureText: NCI tumour cell line growth inhibition, 48 h

Worked examples, 3 compounds total:
# compound, TGI
rows = [
    ("CC(C)c1ccc2c(c1)C=C1OC(=O)[C@]3(C)CCC[C@@]2(C)C13 (stereo partly drawn)", "> 100 µM"),
    ("NC(CCCNc1cccc(O)c1)C(=O)O (stereo not drawn)", "> 100 µM"),
    ("C[N+](C)(C)C1(C(=O)[O-])CC1", "> 100 µM"),
]

Turning to the following compound.
Exercise: Which TGI is reported for this compound? CC(=O)c1c(O)ccc2c(C)c(C(=O)O)oc12
Solution: > 100 µM

###

# System: 786-0 renal
# procedureText: NCI tumour cell line growth inhibition, 48 h
attributeMeasured: TGI

# molecule, TGI
rows = [
    ("CC(=O)O[C@H]1CC[C@H]2[C@@H]3CCC4=C(C(=O)C=CC4(C)OC(C)=O)[C@H]3CC[C@]12C (some centres undefined)", "> 100 µM"),
    ("CC1(C)O[C@H]2[C@@H]3N=C(c4ccccc4)O[C@@H]3C=C[C@H]2O1", "> 100 µM"),
    ("O=C1/C(=C/c2ccc(Cl)cc2)N=C(c2ccccc2)N1C1Nc2cc3c(cc2S1)NC(N1C(=O)/C(=C/c2ccc(Cl)cc2)N=C1c1ccccc1)S3 (centres undefined)", "> 100 µM"),
]

Lab note: next molecule to report on.
Exercise: # lookup: TGI of CCOC(=O)N[C@H]1CCc2cc(O)c(OC)c(OC)c2-c2ccc(SC)c(=O)cc21
Solution: > 59.9 µM
